# Test system: HepG2
# Assay details: Cytotoxicity against human HepG2 cells assessed as reduction in cell viability measured after 24 hrs by MTT assay
# Format: functional, cell-based
# Setup conditions: HepG2, 24 h
Endpoint name: pIC50
Field pIC50 (float): negative decimal logarithm of the concentration in molar.

IN: # assay system HepG2: give pIC50 of OCCNc1nc(NCCc2ccccc2)c2cnn(/C=C/c3ccccc3)c2n1
OUT: 4.80

====

# Assay details: Permeability of the compound at pH 7.4 at 500 uM incubated for 5 hrs by PAMPA based UV/LC-MS analysis
# Assay type: ADME
# Setup conditions: read-out: permeability
Endpoint name: Papp at 5 h, 500 µM (×10⁻⁶ cm/s)
Please give a number only; it is taken to be in ×10⁻⁶ cm/s.

Worked cases, Papp at 5 h, 500 µM given:
C[C@@H](N)C(=O)N[C@@H](Cc1ccccc1)C(=O)N[C@@H](CCCCN)C(=O)OCCNc1nc(NCCc2ccccc2)c2cnn(/C=C/c3ccccc3)c2n1.O=C(O)C(F)(F)F.O=C(O)C(F)(F)F: 0.2
C[C@@H](N)C(=O)N[C@@H](Cc1ccccc1)C(=O)N[C@@H](CCCCN)C(=O)NCCCCC(=O)OCCNc1nc(NCCc2ccccc2)c2cnn(/C=C/c3ccccc3)c2n1.O=C(O)C(F)(F)F.O=C(O)C(F)(F)F: 0.2

IN: Output Papp at 5 h, 500 µM of OCCNc1nc(NCCc2ccccc2)c2cnn(/C=C/c3ccccc3)c2n1
OUT: 2.6

====

Measured solubility thermodynamic at 24 h accompanies every entry in the list below.
# Assay details: Aqueous solubility of the compound at 1 mg incubated for 24 hrs under shaking condition by LC-MS/MS analysis
# Assay type: physicochemical
# Setup conditions: water

Worked cases, solubility thermodynamic at 24 h given:
OCCNc1nc(NCCc2ccccc2)c2cnn(/C=C/c3ccccc3)c2n1: 0.4 µg/mL
C[C@@H](N)C(=O)N[C@@H](Cc1ccccc1)C(=O)N[C@@H](CCCCN)C(=O)NCCCCC(=O)OCCNc1nc(NCCc2ccccc2)c2cnn(/C=C/c3ccccc3)c2n1.O=C(O)C(F)(F)F.O=C(O)C(F)(F)F: > 1000 µg/mL

Then there is this compound:
IN: Output solubility thermodynamic at 24 h of C[C@@H](N)C(=O)N[C@@H](Cc1ccccc1)C(=O)N[C@@H](CCCCN)C(=O)OCCNc1nc(NCCc2ccccc2)c2cnn(/C=C/c3ccccc3)c2n1.O=C(O)C(F)(F)F.O=C(O)C(F)(F)F
OUT: > 1000 µg/mL

====

# Tested on: UniProt P00747
# Sequence (P00747 97-580 limits assumed): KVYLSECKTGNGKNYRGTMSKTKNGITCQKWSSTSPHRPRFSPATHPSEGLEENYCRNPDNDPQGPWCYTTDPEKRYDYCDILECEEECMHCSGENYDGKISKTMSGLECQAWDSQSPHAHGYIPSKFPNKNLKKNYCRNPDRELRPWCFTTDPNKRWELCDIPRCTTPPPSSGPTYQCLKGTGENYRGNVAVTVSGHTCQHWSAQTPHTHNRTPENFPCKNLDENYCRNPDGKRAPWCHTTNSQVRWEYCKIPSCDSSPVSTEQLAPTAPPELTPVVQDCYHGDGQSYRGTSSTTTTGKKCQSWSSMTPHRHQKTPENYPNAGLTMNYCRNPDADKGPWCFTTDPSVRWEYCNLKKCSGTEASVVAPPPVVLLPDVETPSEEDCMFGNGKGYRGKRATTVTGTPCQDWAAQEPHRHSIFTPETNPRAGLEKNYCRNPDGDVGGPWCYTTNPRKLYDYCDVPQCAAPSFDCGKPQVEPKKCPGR
# Sequence (P00747 581-810 limits assumed): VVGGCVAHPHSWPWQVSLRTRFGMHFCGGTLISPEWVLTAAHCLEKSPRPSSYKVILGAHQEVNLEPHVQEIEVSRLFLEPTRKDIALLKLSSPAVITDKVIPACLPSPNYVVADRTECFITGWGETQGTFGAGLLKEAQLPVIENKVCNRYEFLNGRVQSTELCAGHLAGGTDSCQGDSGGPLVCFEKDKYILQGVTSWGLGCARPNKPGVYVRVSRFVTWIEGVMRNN
# Assay details: Stability of the compound in human plasmin solution assessed as half life at 7.5 mM measured up to 24 hrs by UV/LC-MS analysis
# Assay type: ADME
Endpoint name: half-life at 7500 µM

C[C@@H](N)C(=O)N[C@@H](Cc1ccccc1)C(=O)N[C@@H](CCCCN)C(=O)NCCCCC(=O)OCCNc1nc(NCCc2ccccc2)c2cnn(/C=C/c3ccccc3)c2n1.O=C(O)C(F)(F)F.O=C(O)C(F)(F)F: 3.1 h

IN: # assay system UniProt P00747: give half-life at 7500 µM of C[C@@H](N)C(=O)N[C@@H](Cc1ccccc1)C(=O)N[C@@H](CCCCN)C(=O)OCCNc1nc(NCCc2ccccc2)c2cnn(/C=C/c3ccccc3)c2n1.O=C(O)C(F)(F)F.O=C(O)C(F)(F)F
OUT: 1.5 h

The reported numbers originate from ChEMBL document CHEMBL4840302.
